Tested on: E. coli TESEC Mtb Asd
Assay: growth (OD600 after 10 h); higher = more growth (less inhibition)
Details: arabinose induction (level): Low; compound 0.1 mM; raw OD600 reference: median of DMSO wells 0.417, cell-free background 0.041
Where a name gives a salt, the structure may show the parent alone.
Classify as follows. Reported growth greater than or equal to 0.3: met. Reported growth below: not met.

Recorded results for 5 compounds are shown here.
[[record]]
compound = "COc1cc([C@@H]2c3cc4c(cc3[C@@H](O[C@@H]3O[C@@H]5CO[C@@H](C)O[C@H]5[C@H](O)[C@H]3O)[C@H]3COC(=O)[C@H]23)OCO4)cc(OC)c1O [Etoposide]"
target_system = "E. coli TESEC Mtb Asd"
label_class = "not met"

[[record]]
compound = "CC(CN(C)C)CN1c2ccccc2Sc2ccccc21 (stereo not drawn) [Trimeprazine tartrate]"
target_system = "E. coli TESEC Mtb Asd"
label_class = "met"

[[record]]
compound = "COc1ccc(-c2cc(=S)ss2)cc1 [Anethole-trithione]"
target_system = "E. coli TESEC Mtb Asd"
label_class = "not met"

[[record]]
compound = "C=Cc1c(C)c2cc3nc(cc4[nH]c(cc5nc(cc1[nH]2)C(C)=C5CCC(=O)O)c(CCC(=O)OC)c4C)[C@@]1(C)C3=CC=C(C(=O)OC)C1C(=O)OC.C=Cc1c(C)c2cc3nc(cc4[nH]c(cc5nc(cc1[nH]2)C(C)=C5CCC(=O)OC)c(CCC(=O)O)c4C)[C@@]1(C)C3=CC=C(C(=O)OC)C1C(=O)OC (stereo partly drawn) [Verteporfin]"
target_system = "E. coli TESEC Mtb Asd"
label_class = "met"

[[record]]
compound = "c1ccc(CC2=NCCN2)cc1 [Tolazoline hydrochloride]"
target_system = "E. coli TESEC Mtb Asd"
label_class = "met"


IN: Does growth meet or surpass 0.3 for CCc1nc(N)nc(N)c1-c1ccc(Cl)cc1 [Pyrimethamine] ?
OUT: not met

IN: Does growth meet or surpass 0.3 for CCOC(=O)C1=C(C)NC(C)=C(C(=O)OCC)C1c1ccccc1/C=C/C(=O)OC(C)(C)C [Lacidipine] ?
OUT: met

IN: Does growth meet or surpass 0.3 for CC(C)C(=O)Nc1ccc([N+](=O)[O-])c(C(F)(F)F)c1 [Flutamide] ?
OUT: not met

IN: Does growth meet or surpass 0.3 for CC(=O)OC(C)C[N+](C)(C)C (stereo not drawn) [Methacholine chloride] ?
OUT: met

IN: Does growth meet or surpass 0.3 for CC1=C(CC(=O)O)c2cc(F)ccc2/C1=C\c1ccc([S+](C)[O-])cc1 (stereo not drawn) [Sulindac] ?
OUT: not met

IN: Does growth meet or surpass 0.3 for Cc1cnc(C(=O)NCCc2ccc(S(=O)(=O)NC(=O)NC3CCCCC3)cc2)cn1 [Glipizide] ?
OUT: met

IN: Does growth meet or surpass 0.3 for OCCOCCN1CCN(C(c2ccccc2)c2ccc(Cl)cc2)CC1 (stereo not drawn) [Hydroxyzine dihydrochloride] ?
OUT: not met

###

Please respond with reported growth for every item in the list.
Tested on: E. coli TESEC Mtb Alr
Assay: growth (OD600 after 10 h); higher = more growth (less inhibition)
Conditions: arabinose 10000000 nM; compound 0.1 mM; raw OD600 reference: median of DMSO wells 0.146, cell-free background 0.041
Where a name gives a salt, the structure may show the parent alone.
Give bare numbers.

[[record]]
compound = "Cc1ncc([N+](=O)[O-])n1CC(C)O (stereo not drawn)"
assay_result = 0.137

[[record]]
compound = "Nc1cc(-c2ccncc2)c[nH]c1=O"
assay_result = 0.162

[[record]]
compound = "CC(C)(S)C(N)C(=O)O (racemic)"
assay_result = 0.146


Please give growth for each item listed below.
1. CC(=O)O[C@H]1C[C@@]2(C)[C@@H](C[C@@H](O)[C@H]3[C@@]4(C)CC[C@@H](O)[C@@H](C)[C@@H]4CC[C@@]32C)/C1=C(\CCC=C(C)C)C(=O)O [Fusidic acid sodium salt]
2. COc1ccc(C2CNC(=O)C2)cc1OC1CCCC1 (stereo not drawn)

OUT:
[0.0424, 0.14]
